TEST_SYSTEM: B1 bradykinin receptor (Homo sapiens)
Sequence (P46663 whole entry): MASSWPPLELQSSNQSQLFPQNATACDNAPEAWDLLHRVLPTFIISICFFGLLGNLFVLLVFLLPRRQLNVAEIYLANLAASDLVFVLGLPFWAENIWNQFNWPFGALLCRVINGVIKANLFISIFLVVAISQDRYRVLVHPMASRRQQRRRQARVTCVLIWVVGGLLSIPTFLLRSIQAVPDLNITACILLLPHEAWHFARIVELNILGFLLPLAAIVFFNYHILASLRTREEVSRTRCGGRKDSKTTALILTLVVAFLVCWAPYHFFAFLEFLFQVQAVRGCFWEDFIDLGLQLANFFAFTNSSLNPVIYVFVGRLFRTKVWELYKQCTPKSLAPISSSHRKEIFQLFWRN
TEST_METHOD_NOTES: Inhibition of human B1 receptor
Answer each item with its documented IC50.
One number for each entry, in nM.

Study these solved cases before continuing.
CC(C)(C)NCc1ccc2c(c1)CCC[C@H]2NC(=O)C[C@@H]1CCCCN1S(=O)(=O)c1ccc(Cl)cc1
560
COCCNCc1ccc2c(c1)CCC[C@H]2NC(=O)C[C@@H]1CCCCN1S(=O)(=O)c1cccc(C(F)(F)F)c1
21
O=C(C[C@@H]1CCCCN1S(=O)(=O)c1cccc(C(F)(F)F)c1)N[C@@H]1CCCc2cc(CNC3CC3)ccc21
48

Alright, here's another molecule for you.
Q: What does the record list as IC50 for `CC(C)CNCc1ccc2c(c1)CCC[C@H]2NC(=O)C[C@@H]1CCCCN1S(=O)(=O)c1cccc(C(F)(F)F)c1` ?
A: 13

---

TEST_SYSTEM: B1 bradykinin receptor (Homo sapiens, UniProt P46663)
Sequence (P46663 whole entry): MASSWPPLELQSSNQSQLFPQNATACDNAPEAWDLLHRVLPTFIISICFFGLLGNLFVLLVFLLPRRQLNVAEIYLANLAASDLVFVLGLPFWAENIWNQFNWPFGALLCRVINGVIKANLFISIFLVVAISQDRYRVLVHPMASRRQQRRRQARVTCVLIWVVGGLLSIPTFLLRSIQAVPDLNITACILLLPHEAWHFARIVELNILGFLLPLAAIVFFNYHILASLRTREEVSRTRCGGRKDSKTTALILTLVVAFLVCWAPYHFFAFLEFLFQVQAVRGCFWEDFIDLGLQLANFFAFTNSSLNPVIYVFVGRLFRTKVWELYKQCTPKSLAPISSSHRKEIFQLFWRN
TEST_METHOD_NOTES: Inhibition of human B1 receptor
Answer each item with its documented log10(IC50).
Scale: log10; quantity: IC50; unit before log: nM

Study these solved cases before continuing.
CC(C)(C)NCc1ccc2c(c1)CCC[C@H]2NC(=O)C[C@@H]1CCCCN1S(=O)(=O)c1cccc2cnccc12
2.79
CC(C)(C)NCc1ccc2c(c1)CCC[C@H]2NC(=O)C[C@@H]1CCCCN1S(=O)(=O)c1cccc2cccnc12
2.34

Dear colleague, could you please provide log10(IC50) for the compounds listed below?
1. Cc1ccc(S(=O)(=O)N2CCCC[C@H]2CC(=O)N[C@@H]2CCCc3cc(CNC(C)(C)C)ccc32)cc1
2. O=C(C[C@@H]1CCCCN1S(=O)(=O)c1cccc(C(F)(F)F)c1)N[C@@H]1CCCc2cc(CN3CCC3)ccc21
3. CC(C)(C)NCc1ccc2c(c1)CCC[C@H]2NC(=O)C[C@@H]1CCCCN1S(=O)(=O)c1cccc(Cl)c1
4. Cc1ccc(S(=O)(=O)N2CCCC[C@H]2CC(=O)N[C@@H]2CCCc3cc(CNC(C)(C)C)ccc32)cc1C(F)(F)F
5. CN(C)Cc1ccc2c(c1)CCC[C@H]2NC(=O)C[C@@H]1CCCCN1S(=O)(=O)c1cccc(C(F)(F)F)c1

A:
1. 1.97
2. 3.04
3. 2.08
4. 1.04
5. 1.79

Dear colleague, could you please provide log10(IC50) for the compounds listed below?
1. CCCCOc1ccc(S(=O)(=O)N2CCCC[C@H]2CC(=O)N[C@@H]2CCCc3cc(CNC(C)(C)C)ccc32)cc1
2. CC(C)(C)NCc1ccc2c(c1)CCC[C@H]2NC(=O)C[C@@H]1CCCCN1S(=O)(=O)c1ccc(-c2ccccc2)cc1
3. CC(C)(C)NCc1ccc2c(c1)CCC[C@H]2NC(=O)C[C@@H]1CCCCN1S(=O)(=O)c1csc2ccccc12
4. CC(C)(C)NCc1ccc2c(c1)CCC[C@H]2NC(=O)C[C@@H]1CCCCN1S(=O)(=O)c1ccc(C(F)(F)C(F)(F)F)cc1

A:
1: 3.08; 2: 2.84; 3: 1.15; 4: 2.56
